# measuredTarget: recombinant N-terminal GST-tagged human Rho kinase 2 (ROCK2, amino acids 1-552) (Homo sapiens)
# Construct: ROCK2, amino acids 1-552; purchased Invitrogen Inc. PV3759
# assayProtocol: In vitro Rho kinase assay (luciferase-based ATP consumption), ROCK2
# Format: biochemical
# measurementSetup: recombinant GST-tagged human ROCK2, luciferase-based ATP consumption; read-out: ROCK2 IC50
measuredAttribute: IC50

Take a look at these entries with their results.
Cc1c(-c2ccnc(N)n2)sc2ccc(CNC(=O)c3cccc(Cl)c3[N+](=O)[O-])cc12: < 5 µM
Cc1c(-c2ccnc(N)n2)sc2ccc(C(=O)NCc3ccc(C(C)(C)C)cc3)cc12: > 5 µM
Cc1c(-c2ccnc(N)n2)sc2ccc(C(=O)NCC3CCCCC3)cc12: < 5 µM
Cc1c(-c2ccnc(N)n2)sc2ccc(C(=O)NCCC(C)(C)C)cc12: < 5 µM
Cc1c(-c2ccnc(N)n2)sc2ccc(CNC(=O)C3CCCCN3C(=O)OC(C)(C)C)cc12 (stereo not shown): > 5 µM

Inquiry: // IC50 lookup, key: Cc1ccc(C(=O)CCC(=O)NCc2ccc3sc(-c4ccnc(N)n4)c(C)c3c2)cc1
Reply text: < 5 µM

Inquiry: Cool, now Cc1c(-c2ccnc(N)n2)sc2ccc(CNC(=O)C3CCc4ccccc43)cc12 (stereo not shown)
Reply text: < 5 µM

Inquiry: Can you check Cc1c(-c2ccnc(N)n2)sc2ccc(CNC(=O)c3cccc([N+](=O)[O-])c3)cc12 next?
Reply text: < 5 µM

Inquiry: What do you get for Cc1c(-c2ccnc(N)n2)sc2ccc(C(=O)NC(CO)C(C)C)cc12 (stereo not shown) ?
Reply text: < 5 µM

====

# measuredTarget: recombinant N-terminal GST-tagged human Rho kinase 2 (ROCK2, amino acids 1-552) (Homo sapiens, UniProt O75116)
# Construct: ROCK2, amino acids 1-552; purchased Invitrogen Inc. PV3759
# Sequence (O75116 1-552): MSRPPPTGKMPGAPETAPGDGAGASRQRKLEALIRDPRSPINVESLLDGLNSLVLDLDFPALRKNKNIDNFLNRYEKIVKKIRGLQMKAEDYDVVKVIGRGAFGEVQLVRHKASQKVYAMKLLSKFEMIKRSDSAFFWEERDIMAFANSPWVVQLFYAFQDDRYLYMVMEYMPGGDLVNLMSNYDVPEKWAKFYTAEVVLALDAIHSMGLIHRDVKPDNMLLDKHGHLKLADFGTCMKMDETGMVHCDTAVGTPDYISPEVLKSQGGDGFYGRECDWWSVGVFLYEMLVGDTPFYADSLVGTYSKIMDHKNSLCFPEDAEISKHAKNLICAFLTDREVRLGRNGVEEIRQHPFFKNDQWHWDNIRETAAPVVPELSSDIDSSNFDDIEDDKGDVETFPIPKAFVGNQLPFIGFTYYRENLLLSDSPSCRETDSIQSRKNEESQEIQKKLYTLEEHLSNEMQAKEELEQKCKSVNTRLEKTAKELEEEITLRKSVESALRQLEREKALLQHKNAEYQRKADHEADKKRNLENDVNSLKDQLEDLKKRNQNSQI
# assayProtocol: In vitro Rho kinase assay (luciferase-based ATP consumption), ROCK2
# Format: biochemical
# measurementSetup: recombinant GST-tagged human ROCK2, luciferase-based ATP consumption; read-out: ROCK2 IC50
pIC50: −log10 of the molar value.
measuredAttribute: pIC50

Inquiry: For the compound shown here, Cc1c(-c2ccnc(N)n2)sc2ccc(CNC(=O)c3ccc(C#N)cc3)cc12 , give the reported pIC50.
Reply text: > 5.30

====

# measuredTarget: recombinant N-terminal GST-tagged human Rho kinase 2 (ROCK2, amino acids 1-552) (Homo sapiens)
# Construct: ROCK2, amino acids 1-552; purchased Invitrogen Inc. PV3759
# assayProtocol: In vitro Rho kinase assay (luciferase-based ATP consumption), ROCK2
# Format: biochemical
# measurementSetup: ROCK2 IC50, recombinant GST-tagged human ROCK2, luciferase-based ATP consumption
pIC50: −log10 of the molar value.
measuredAttribute: pIC50

Some entries whose results are on file:
C#CCN(Cc1ccc(Cl)cc1Cl)C(=O)c1ccc2sc(-c3ccnc(N)n3)c(C)c2c1: < 5.30
Cc1c(-c2ccnc(N)n2)sc2ccc(CNC(=O)c3ccc(Cl)cc3Cl)cc12: > 5.30
Cc1c(-c2ccnc(N)n2)sc2ccc(CNC(=O)c3cc(Cl)ccc3Cl)cc12: > 5.30
Cc1c(-c2ccnc(N)n2)sc2ccc(CNC(=O)c3ccccc3Cl)cc12: > 5.30
Cc1c(-c2ccnc(N)n2)sc2ccc(CNC(=O)c3c(F)cccc3Cl)cc12: > 5.30

Inquiry: Recorded pIC50 for Cc1c(-c2ccnc(N)n2)sc2ccc(C(=O)NCCc3ccccc3Cl)cc12 , please?
Reply text: > 5.30

Inquiry: Now consider Cc1c(-c2ccnc(N)n2)sc2ccc(C(=O)NCc3ccc(Cl)cc3Cl)cc12 .
Reply text: < 5.30

Inquiry: Can you handle Cc1c(-c2ccnc(N)n2)sc2ccc(CNC(=O)c3cc([N+](=O)[O-])ccc3Cl)cc12 next?
Reply text: > 5.30
